Tested on: HCT-15
Strictly below 50 µM in GI50: Condition met. Otherwise: Condition not met.

Compound	Measured On	Qualitative Label
CN1CCN(CCSC2Cc3cc(Cl)ccc3Sc3ccccc32)CC1 (stereo unspecified)	HCT-15	Condition met
Oc1ccccc1/C=N/c1ccccc1/N=C/c1ccccc1O	HCT-15	Condition not met
O=C(/C=C/c1ccccc1)/C=N/N1C(=S)N(c2ccccc2)C(=N\c2ccccc2)/C1=N/c1ccccc1	HCT-15	Condition not met
O=c1c2c3c(sc2nc2n1N=CN(c1ccccc1)C2)CCCC3	HCT-15	Condition not met
Nc1cc([N+](=O)[O-])ccc1C(=O)N1CCC[C@H]1CO	HCT-15	Condition not met
CC1(C)C2CC(O)C1(C)CC2=O (stereo unspecified)	HCT-15	Condition not met
C(=N\c1ccc(-c2nc3ccccc3[nH]2)cc1)/c1ccco1	HCT-15	Condition not met
Cc1c(/C=N/NC(=S)Nc2ccccc2Cl)c(=O)n(-c2ccccc2)n1C	HCT-15	Condition met
O[C@H]1[C@H](O)[C@@H](O)CN2CC[C@H](O)[C@H]12 [CASTANOSPERMINE]	HCT-15	Condition not met
Cc1ccc2[nH]c(=O)c(C(C#N)c3ccccc3)nc2c1 (stereo unspecified)	HCT-15	Condition met
Cn1c(-c2ccccc2)cc(-c2cccs2)c1-c1cccs1	HCT-15	Condition met

====

# reported GI50; entries follow
System: OVCAR-4
Assay: NCI tumour cell line growth inhibition, 48 h
Calls of active or inactive are those of the source. Rule as the data show it: active = GI50 up to about 1.1 µM and inactive = higher.

Compound	GI50
O=[N+]([O-])c1ccc(/C=N/CC2CCCN3CCCCC23)cc1 (stereo not given)	> 100 µM (inactive)
O=C(O)CC1OCC=C2C[N+]3([O-])CCC45c6ccccc6NC4C1C2CC53 (stereo not given)	> 100 µM (inactive)
CCCCCCCCC(C)CCCCCCCCC(=O)OCC(COP(=O)([O-])OCC[N+](C)(C)C)OC(=O)CCCCCCCCC(C)CCCCCCCC (stereo not given)	> 100 µM (inactive)
O=c1c2ccccc2oc2ccccc12.Oc1cccc2cccnc12	5.89 µM (inactive)
CCCOc1ccc(-c2nc(-c3ccc(/N=C/c4ccc(N(CCOS(C)(=O)=O)CCOS(C)(=O)=O)cc4C)cc3)cs2)cc1	34.1 µM (inactive)
O=C(O)CCC1COc2ccccc2O1 (stereo not given)	> 10 µM (inactive)
CCSC1SC(c2ccccc2)(c2ccccc2)c2ccccc21 (stereo not given)	55.1 µM (inactive)
COc1cc2c3cc1Oc1c(O)c(OC)cc4c1[C@H](Cc1ccc(cc1)Oc1cc(ccc1O)C[C@H]3N(C)CC2)N(C)CC4	16.9 µM (inactive)
N#Cc1cc(-c2nc3c(F)cccc3s2)ccc1N	> 100 µM (inactive)
O=C(NCCN1CCOCC1)c1ccc(I)cc1	> 100 µM (inactive)

====

Each item that follows carries a reported GI50.
Tested on: SNB-75
Experiment: NCI tumour cell line growth inhibition, 48 h
Active and inactive are the calls of the source. Cut-off read from the data, not from the text of the source: active = GI50 up to about 1.1 µM and inactive = higher.

Compound	Measured On	GI50
OCC(O)C(O)C(O)C1SC(c2ccccc2)=NN1c1ccccc1 (stereo not drawn)	SNB-75	16 µM (inactive)
O=C(/C=C/c1ccc(O)c(O)c1)OCC(OC(=O)/C=C/c1ccc(O)c(O)c1)C(=O)O (stereo not drawn)	SNB-75	63 µM (inactive)
COc1ccc(C2=Nc3c(nc(SC)[nH]c3=O)NC(c3ccccc3)C2)cc1 (stereo not drawn)	SNB-75	17.8 µM (inactive)
C=CC(COC(=O)C(C)(C)OC(C)=O)c1ccc(OC(=O)C(C)C)c(OC)c1 (stereo not drawn)	SNB-75	7.16 µM (inactive)
COc1ccc(C[C@@H]2OC3(C=CC(=O)C=C3)O[C@H]2Cc2ccc(OC)cc2)cc1	SNB-75	1.68 µM (inactive)
CCC(NC1=NCCO1)c1cccs1 (stereo not drawn)	SNB-75	3.24 µM (inactive)
COc1ccc2[nH]c(=O)cc(C)c2c1[N+](=O)[O-]	SNB-75	10.5 µM (inactive)
CCN(C(=O)N[C@H](C(=O)N[C@@H](CSC)C(=O)N[C@@H](C)C(=O)OC)C(C)C)c1ccccc1	SNB-75	12.4 µM (inactive)

====

System: MDA-MB-435
Assay: NCI tumour cell line growth inhibition, 48 h
Calls of active or inactive are those of the source. Rule as the data show it: active = GI50 up to about 1.1 µM and inactive = higher.
Catalogue of compounds with associated GI50
Parameter Measured: GI50

Smiles Structure	Measured On	Result
CN(C)c1ccc2oc(=O)c3ccccc3c2c1	MDA-MB-435	> 100 µM (inactive)
CCOC(CN(C)C(=O)OCC(Cl)(Cl)Cl)OCC	MDA-MB-435	> 100 µM (inactive)
Cc1ccc(/C=C2/NC(=S)SC2=O)cc1	MDA-MB-435	36.5 µM (inactive)
CSc1cc(Br)ccc1-n1c(C(=O)c2ccccc2)c(SC)n(-c2ccccc2)c1=O	MDA-MB-435	7.59 µM (inactive)
C(=N\c1ccc(-c2nc3ccccc3[nH]2)cc1)/c1ccco1	MDA-MB-435	48.4 µM (inactive)
Cc1c(/C=N/NC(=S)Nc2ccccc2Cl)c(=O)n(-c2ccccc2)n1C	MDA-MB-435	> 100 µM (inactive)

====

Test system: SK-MEL-28
Assay: NCI tumour cell line growth inhibition, 48 h
Calls of active or inactive are those of the source. Rule as the data show it: active = GI50 up to about 1.1 µM and inactive = higher.
Parameter Measured: GI50

Compound	Parameter Measured	Result
CC(=O)Nc1ccccc1C=C1c2ccccc2-c2ccccc21	GI50	> 100 µM (inactive)
O=C(C[n+]1ccccc1)N/N=C(\Cc1nc2ccc([N+](=O)[O-])cc2nc1O)C(=O)Nc1cc(Cl)c(Cl)cc1Cl	GI50	> 100 µM (inactive)
CCN(CC)CCCNc1nncc2c(C)c3[nH]c4ccc(OC)cc4c3cc12	GI50	0.766 µM (active)
CC(C)(C)OCC1NC(=O)[C@@H]2Cc3c([nH]c4ccccc34)C(c3ccccc3)N2C1=O (stereo not given in full)	GI50	> 50 µM (inactive)
Cc1ccc(C)c2c1C/C(=C\c1ccccc1C(=O)O)C2=O	GI50	> 100 µM (inactive)
O=[N+]([O-])c1cccc(CSc2nc(O)c3nc[nH]c3n2)c1	GI50	> 100 µM (inactive)
N#C[BH2-][n+]1ccc(C(=O)NNCc2ccccc2)cc1	GI50	> 100 µM (inactive)
COc1cccc2c1Cc1cc(-c3ccccc3)[n+](C)n1-2	GI50	46.1 µM (inactive)
C1=C(c2ccccc2)O[C@H](COCc2ccccc2)C(OCc2ccccc2)[C@@H]1OCc1ccccc1 (stereo not given in full)	GI50	> 10 µM (inactive)
Cc1ccc(C(=O)N(C2CCCCC2)C2CCCCC2)cc1/N=N/N(C)C	GI50	7.14 µM (inactive)

====

System: T47D
Test: NCI tumour cell line growth inhibition, 48 h
Activity calls are given as the source filed them. Cut-off read from the data, not from the text of the source: active = GI50 up to about 1.1 µM and inactive = higher.

Molecule	Measured On	GI50
Cc1cc(C)nc(NS(=O)(=O)c2ccc(Nc3c4ccccc4nc4ccc(C(=O)Nc5ccc(S(=O)(=O)N=C(N)N)cc5)cc34)cc2)n1	T47D	38.2 µM (inactive)
c1ccc(P(CCP(c2ccccn2)c2ccccn2)c2ccccc2)cc1	T47D	0.0435 µM (active)
Sc1nn2c(COc3ccc(Cl)cc3)nnc2s1	T47D	> 100 µM (inactive)
CC(=O)Nc1n[n+]([O-])c2cc(C)ccc2[n+]1[O-]	T47D	2.34 µM (inactive)
COc1cc2c(cc1OC)[C@@](C)(C(O)C(O)C(C)(C)O)NCC2 (some centres not stated)	T47D	> 100 µM (inactive)
C[C@]12CC/C(=N\OCCN3CCCC3)C=C1CCC1C2CC[C@@]2(C)C1CC[C@]2(C)O (some centres not stated)	T47D	12.3 µM (inactive)
O=C(/C=C/c1ccc(O)c(O)c1)OCC(OC(=O)/C=C/c1ccc(O)c(O)c1)C(=O)O (configuration not stated)	T47D	> 100 µM (inactive)
COc1ccc2c(c1)/c(=C/C#N)c1c3ccccc3[n+](C)n21	T47D	2.51 µM (inactive)
CSC1SCC2C(=O)N(C)C3(CC3C)C(=O)OCC(NC(=O)c3nc4ccccc4cc3O)C(=O)NC(C)C(=O)N(C)C1C(=O)N(C)C1(CC1C)C(=O)OCC(NC(=O)c1nc3ccccc3cc1O)C(=O)NC(C)C(=O)N2C (configuration not stated)	T47D	< 0.0001 µM (active)
Oc1nc(S)nc(SCc2c(Cl)c(Cl)c(Cl)c(Cl)c2Cl)n1	T47D	27.9 µM (inactive)
Cc1c(/C=N/NC(=S)Nc2ccccc2Cl)c(=O)n(-c2ccccc2)n1C	T47D	13 µM (inactive)
Nc1ccccc1-c1noc(=O)[nH]1	T47D	> 100 µM (inactive)
CC12CCCCC1=C(F)C(F)(F)S2 (configuration not stated)	T47D	26.7 µM (inactive)
CC(C)(C)C1=C(Br)C(OC(=O)C(F)(F)F)(C(C)(C)C)OP1(=O)c1ccccc1 (configuration not stated)	T47D	30 µM (inactive)
CN(CCNC(=O)c1nn(-c2ccccc2)c2c1Cc1ccccc1-2)CCNC(=O)c1nn(-c2ccccc2)c2c1Cc1ccccc1-2	T47D	2.48 µM (inactive)
COC(=O)C(Cc1ccccc1)NS(=O)(=O)c1ccc(-c2c3nc(c(-c4ccc(S(=O)(=O)NC(Cc5ccccc5)C(=O)OC)cc4)c4ccc([nH]4)c(-c4ccc(S(=O)(=O)NC(Cc5ccccc5)C(=O)OC)cc4)c4nc(c(-c5ccc(S(=O)(=O)NC(Cc6ccccc6)C(=O)OC)cc5)c5ccc2[nH]5)C=C4)C=C3)cc1 (configuration not stated)	T47D	> 100 µM (inactive)
Oc1ccc(Cl)cc1CN1CCN(Cc2cc(Cl)ccc2O)C1	T47D	1.84 µM (inactive)
